Documented IC50 across a set of compounds
# SYSTEM NAME: C5aR (Homo sapiens, UniProt P21730)
# Construct: U937 cells are a monocytic cell line which express C5aR
# Sequence (P21730 whole entry): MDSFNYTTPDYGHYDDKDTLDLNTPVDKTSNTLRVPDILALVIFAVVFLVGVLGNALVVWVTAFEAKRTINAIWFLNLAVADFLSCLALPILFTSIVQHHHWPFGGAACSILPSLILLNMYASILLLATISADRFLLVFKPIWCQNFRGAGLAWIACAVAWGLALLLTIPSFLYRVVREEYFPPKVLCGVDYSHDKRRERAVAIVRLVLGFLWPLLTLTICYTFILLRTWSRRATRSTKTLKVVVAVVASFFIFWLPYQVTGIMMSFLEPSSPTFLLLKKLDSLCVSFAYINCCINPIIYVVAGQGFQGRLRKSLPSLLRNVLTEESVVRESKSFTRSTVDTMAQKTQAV
# PROTOCOL NOTES: chemotaxis assay (C5aR mediated migration)
# MEASUREMENT SETUP: migration of U937 or neutrophil cells toward C5a (0.03 nM), 1.5 hours at 37° C., read-out: Mig IC50

# annotated cases, reported IC50 shown
CCc1cccc(CC)c1-n1nc2c(c1-c1c(F)cc(Cl)c3[nH]ccc13)CN(c1ncc(C(C)C)cc1F)CC2: < 5 nM
CCc1cccc(CC)c1-n1nc2c(c1-c1ccc(Cl)c3[nH]ccc13)CN(c1ncc(C(F)(F)F)cc1F)CC2: < 5 nM
Cc1cccc(C)c1-n1nc2c(c1-c1c(F)cc(Cl)c3[nH]ccc13)CN(c1ncc(C(C)C)cc1F)CC2: 5 to 50 nM
CCc1cccc(CC)c1-n1nc2c(c1-c1ccc(Cl)c3[nH]ccc13)CN(c1nccc(C(F)(F)F)n1)CC2: < 5 nM
CCc1cccc(CC)c1-n1nc2c(c1-c1ccc3[nH]c(C)nc3c1)CN(c1ncc(C(F)(F)F)cn1)CC2: > 500 nM

IC50 measured on `Cc1cccc(C)c1-n1nc2c(c1-c1c(F)cc(C)c3[nH]ccc13)CN(c1ncc(C(C)C)cn1)CC2` = < 5 nM

Entry `Cc1cccc(OCC(C)C)c1-n1nc2c(c1-c1ccc3[nH]ccc3c1)CN(c1ncc(C(F)(F)F)cc1F)CC2` , IC50 reported as < 5 nM

Value of IC50 reported for the compound `Cc1cccc(OCC(C)C)c1-n1nc2c(c1-c1cccc3[nH]ccc13)CN(c1ncc(C(F)(F)F)cc1F)CC2` is 5 to 50 nM

Lookup result for `CCc1cccc(CC)c1-n1nc2c(c1-c1cc(F)c(OC)c3[nH]ncc13)CN(c1ncc(C(F)(F)F)cn1)CC2` ; measured IC50: < 5 nM

Values were extracted from patent US11384079B2.
